# Tested on: rodent lifetime carcinogenesis bioassay, tumor incidence TD50
# METHOD DESCRIPTION: carcinogenic potency in animals, long-term in vivo studies, CPDB compilation (AID 1745844)
# CONDITION: mouse; strain B6C3F1; females; in feed; site: thyroid gland; lesion: follicular-cell adenoma; dosed 84 weeks; study length 88 weeks
OUTCOME MEASURE: TD50

What does the data say about its TD50? Entry: O=c1cc(CO)occ1O
2610 mg/kg/day

====

# Test system: rodent lifetime carcinogenesis bioassay, tumor incidence TD50
# METHOD DESCRIPTION: carcinogenic potency in animals, long-term in vivo studies, CPDB compilation (AID 1745844)
# CONDITION: rat; strain Fischer 344; females; in feed; site: liver; lesion: neoplastic nodule; dosed 104 weeks; study length 128 weeks
OUTCOME MEASURE: TD50 (mg/kg/day)
Numbers only, in mg/kg/day.

What does the data say about its TD50? Entry: O=NO
164

====

# System: rodent lifetime carcinogenesis bioassay, tumor incidence TD50
# METHOD DESCRIPTION: carcinogenic potency in animals, long-term in vivo studies, CPDB compilation (AID 1745844)
# CONDITION: rat; strain Osborne-Mendel; males; in feed; site: any site (literature study); lesion: benign tumor; dosed 104 weeks; study length 104 weeks
Calls of active or inactive are those of the source. The rule behind the calls is not given here.
Could you please report measured TD50 for the items listed next?

{"COMPOUND": "NC(N)=S", "SYSTEM TESTED": "rodent lifetime carcinogenesis bioassay, tumor incidence TD50", "TD50": "64.7 mg/kg/day (inactive)"}

Please find the next compound below.
What does the data say about its TD50? Entry: CC(COc1ccc(C(C)(C)C)cc1)OS(=O)OCCCl (configuration not stated)
64.7 mg/kg/day (inactive)

====

# System: rodent lifetime carcinogenesis bioassay, tumor incidence TD50
# METHOD DESCRIPTION: carcinogenic potency in animals, long-term in vivo studies, CPDB compilation (AID 1745844)
# CONDITION: rat; strain Fischer 344; females; by gavage; site: thyroid gland; lesion: follicular-cell adenoma + follicular-cell carcinoma; dosed 100 weeks; study length 104 weeks
OUTCOME MEASURE: TD50
Write your answer as a measured quantity: the number, then the unit.

What does the data say about its TD50? Entry: CC(C)=CCl
131 mg/kg/day

====

# System: rodent lifetime carcinogenesis bioassay, tumor incidence TD50
# METHOD DESCRIPTION: carcinogenic potency in animals, long-term in vivo studies, CPDB compilation (AID 1745844)
# CONDITION: mouse; strain B6C3F1; females; in feed; site: liver; lesion: hepatocellular carcinoma + neoplastic nodule; dosed 70 weeks; study length 97 weeks
OUTCOME MEASURE: TD50

What does the data say about its TD50? Entry: Cc1ccc2c(c1N)C(=O)c1ccccc1C2=O
174 mg/kg/day

====

# Test system: rodent lifetime carcinogenesis bioassay, tumor incidence TD50
# METHOD DESCRIPTION: carcinogenic potency in animals, long-term in vivo studies, CPDB compilation (AID 1745844)
# CONDITION: rat; strain Fischer 344; females; in feed; site: liver; lesion: hepatocellular carcinoma; dosed 78 weeks; study length 109 weeks
OUTCOME MEASURE: TD50

What does the data say about its TD50? Entry: Cc1ccc2c(c1[N+](=O)[O-])C(=O)c1ccccc1C2=O
547 mg/kg/day

====

# Test system: rodent lifetime carcinogenesis bioassay, tumor incidence TD50
# METHOD DESCRIPTION: carcinogenic potency in animals, long-term in vivo studies, CPDB compilation (AID 1745844)
# CONDITION: hamster; strain Syrian Golden; males; inhaled; site: colon; lesion: adenocarcinoma; dosed 52 weeks; study length 104 weeks
OUTCOME MEASURE: TD50

What does the data say about its TD50? Entry: NN
14 mg/kg/day

Reference source for all entries: PubChem BioAssay AID1745844
